Tested on: A549
Protocol description: Euclidean distance of Cell Painting phenotypic profile (signed KS, 77 features) to DMSO centroid (dimensionless distance); 5 or 10 uM (library dependent); higher = stronger phenotypic change vs DMSO (phenoactivity)
Test parameters: 48 h
Counter-ions that a name gives are not always drawn.
Classes based on Euclidean distance: low (below 1), intermediate (1 to below 3), high (3 or more)

NC(=O)/C(=C/n1cnc(-c2cc(C(F)(F)F)cc(C(F)(F)F)c2)n1)c1cncnc1 [Eltanexor (KPT-8602)] : high
O=C1c2cccc3c2[C@H](CCC3)CN1[C@@H]1CN2CCC1CC2 [Palonosetron HCl] : low
CCCCCCNC(=O)n1cc(F)c(=O)[nH]c1=O [Carmofur] : intermediate
O=C(NCc1ccccc1)c1csc(Nc2ccncn2)n1 [Thiazovivin] : intermediate
Cn1cc(Nc2nccc(N3C[C@H]4CC[C@@H](C3)N4C(=O)[C@@H]3CC3(F)F)n2)cn1 : intermediate
CC(C)/N=c1\cc2n(-c3ccc(Cl)cc3)c3ccccc3nc-2cc1Nc1ccc(Cl)cc1 [Clofazimine] : intermediate
CN1CCN(Cc2ccc(Nc3ncc(Cl)c(Nc4ccccc4S(=O)(=O)N(C)C)n3)cc2)CC1 : high
CCCCC1C(=O)N(c2ccccc2)N(c2ccccc2)C1=O [Phenylbutazone] : low

* * *

Tested on: DU145
Protocol description: Euclidean distance of Cell Painting phenotypic profile (signed KS, 77 features) to DMSO centroid (dimensionless distance); 5 or 10 uM (library dependent); higher = stronger phenotypic change vs DMSO (phenoactivity)
Test parameters: 48 h
Where a name gives a salt, the structure may show the parent alone.
Measurement label: Euclidean distance

CN1C2CCCC1CC(NC(=O)c1nn(C)c3ccccc13)C2 (centres undefined) [Granisetron] : 0.646
CO[C@@H]1[C@@H](OC(N)=O)[C@@H](O)[C@H](Oc2ccc3c(O)c(NC(=O)c4ccc(O)c(CC=C(C)C)c4)c(=O)oc3c2C)OC1(C)C [Novobiocin Sodium] : 0.814
CC/C(=C(\c1ccc(O)cc1)c1ccc(OCCNC)cc1)c1ccccc1 [Endoxifen HCl] : 2.59
NC(=O)c1ccc(-c2nc(-c3ccccn3)c(-c3ccc4c(c3)OCO4)[nH]2)cc1 : 1.48

* * *

System: FB
Protocol description: Euclidean distance of Cell Painting phenotypic profile (signed KS, 77 features) to DMSO centroid (dimensionless distance); 5 or 10 uM (library dependent); higher = stronger phenotypic change vs DMSO (phenoactivity)
Test parameters: 48 h
Where a name gives a salt, the structure may show the parent alone.
Euclidean distance of 1 or higher: yes. Under 1: no.

Cn1c(=O)c2[nH]cnc2n(C)c1=O : no
CN[C@@H]1[C@H](O)[C@H](NC)[C@H]2O[C@@]3(O)C(=O)C[C@@H](C)O[C@H]3O[C@@H]2[C@H]1O [Spectinomycin 2HCl] : yes
COc1cc2nc(N3CCN(C(=O)c4ccco4)CC3)nc(N)c2cc1OC [Prazosin HCl] : no
C=C1/C(=C\C=C2/CCC[C@]3(C)[C@@H]([C@H](C)/C=C/[C@@H](O)C4CC4)CC[C@@H]23)C[C@@H](O)C[C@@H]1O : yes
O=C(Nc1c[nH]nc1-c1nc2ccc(CN3CCOCC3)cc2[nH]1)NC1CC1 : yes
COc1c(C)c2c(c(O)c1C/C=C(\C)CCC(=O)OCCN1CCOCC1)C(=O)OC2 [Mycophenolate Mofetil] : yes
C[C@@H]1[C@H](O)[C@@H](C)/C=C/C=C/C=C/C=C/C=C/C=C/C=C/[C@H](O[C@@H]2O[C@H](C)[C@@H](O)[C@H](N)[C@@H]2O)C[C@@H]2O[C@](O)(C[C@@H](O)C[C@@H](O)[C@H](O)CC[C@@H](O)C[C@@H](O)CC(=O)O[C@H]1C)C[C@H](O)[C@H]2C(=O)O : yes
CC1CNc2c(cccc2S(=O)(=O)N[C@@H](CCCNC(=N)N)C(=O)N2CC[C@@H](C)C[C@@H]2C(=O)O)C1 (stereo partly specified) : no
C[C@H]1O[C@@H](O[C@H]2CC[C@@]3(C)[C@@H](CC[C@]4(C)[C@@H]3C=C[C@]35OC[C@@]6(CCC(C)(C)C[C@H]63)[C@@H](O)C[C@]54C)[C@]2(C)CO)[C@H](O)[C@@H](O[C@@H]2O[C@H](CO)[C@@H](O)[C@H](O)[C@H]2O)[C@H]1O : yes
Cc1cccc(C)c1NC(=O)c1cc(S(N)(=O)=O)c(Cl)cc1O [Xipamide] : yes
O=[N+]([O-])c1ccc(O)c2ncccc12 : yes
O=C(O)Cc1cccc(OCCCN(Cc2cccc(C(F)(F)F)c2Cl)CC(c2ccccc2)c2ccccc2)c1 : yes
Cn1nnc(-c2ccc(-c3ccc(N4C[C@H](CO)OC4=O)cc3F)cn2)n1 : no
CCc1nc(-c2cccc(C)c2)c(-c2ccnc(NC(=O)c3ccccc3)c2)s1 : yes
C[C@H]1COC2=C1C(=O)C(=O)c1c2ccc2c1CCCC2(C)C : yes
Cc1cc(C(C)(C)C)c(O)c(C(C)(C)C)c1 [Butylated hydroxytoluene] : no
Cc1oc(=O)oc1CN1CCN(c2cc3c(cc2F)c(=O)c(C(=O)O)c2n3C(C)S2)CC1 (stereo unspecified) : no
CC(C)(Oc1ccc(C(=O)c2ccc(Cl)cc2)cc1)C(=O)O [Choline Fenofibrate] : yes
CC[C@H](CO)Nc1nc(NCc2ccccc2)c2ncn(C(C)C)c2n1 [Roscovitine (Seliciclib.CYC202)] : yes
CC(C)C(=O)Oc1ccc(CO)cc1[C@H](CCN(C(C)C)C(C)C)c1ccccc1 [Fesoterodine Fumarate] : no
C=C(CC)C(=O)c1ccc(OCC(=O)O)c(Cl)c1Cl : yes
CCc1cc2c(cc1N1CCC(N3CCOCC3)CC1)C(C)(C)c1[nH]c3cc(C#N)ccc3c1C2=O [Alectinib hydrochloride] : yes
CC(C)(C)C(=O)Oc1ccc(S(=O)(=O)Nc2ccccc2C(=O)NCC(=O)O)cc1 [Sivelestat sodium tetrahydrate] : yes
CC(C)N(CCCNC(=O)Nc1ccc(C(C)(C)C)cc1)C[C@H]1O[C@@H](n2ccc3c(N)ncnc32)[C@H](O)[C@@H]1O : yes
O=C(O)c1cc(=O)c2ccccc2o1 : yes
CCCCCCCCCCCCC[N+](C)(C)Cc1ccccc1 [Benzalkonium chloride] : yes
C[C@H]1O[C@@H](Oc2c(-c3cc(O)c(O)c(O)c3)oc3cc(O)cc(O)c3c2=O)[C@@H](O)[C@@H](O)[C@@H]1O : yes
Cc1cccc(C)c1N(CC(=O)Nc1ccc(-c2ncon2)cc1)C(=O)C1CCS(=O)(=O)CC1 : yes
COc1ccc(-c2cc(=S)ss2)cc1 : yes
O=C(/C=C/C#Cc1cccc(NS(=O)(=O)c2ccccc2)c1)NO : yes

These entries and their values trace back to the supplement of paper PMC10127200.
